Numbers sourced from paper PMC3961306.

Test system: forty-four human cancer cell lines
EXPERIMENTAL_DETAILS: Cell proliferation assay (ATPlite, 72 hours) in the 44 cell line Oncolines panel
Assay type: cell-based
CONDITION_SET: Homo sapiens, K562, read-out: cell panel IC50, K-562, cell line K-562
pIC50: −log10 of the molar value.
Quick reference: pIC50 of the listed items.
VALUE_TYPE: pIC50

[[record]]
smiles_input = "CC(C)C[C@H](NC(=O)[C@H](Cc1ccccc1)NC(=O)c1cnccn1)B(O)O"
value_type = "pIC50"
meas_value = 7.80

[[record]]
smiles_input = "COc1cccc2c1C(=O)c1c(O)c3c(c(O)c1C2=O)C[C@@](O)(C(=O)CO)C[C@@H]3O[C@H]1C[C@H](N)[C@H](O)[C@H](C)O1"
value_type = "pIC50"
meas_value = 7.26

